For each entry below, report its shrunken log2 fold change value.
- System: Escherichia coli TOP10
- test_summary: shrunken log2 fold change of peptide-encoding DNA abundance (4.5 h post-induction vs induction); higher = less antimicrobial activity (less host growth inhibition)
- condition_context: time post-induction: 4.5 h; library: site-saturation at positions 5, 18, 19, 20
Form rule: numeric answer, no unit written next to it.

shrunken log2 fold change for RRIRKRPPRLPRPRPRPKARPRP is 0.0808

shrunken log2 fold change for RRIRSRPPRLPRPRPRPFKGPRP is 0.112

shrunken log2 fold change for RRIRGRPPRLPRPRPRPFVVPRP is 0.222

shrunken log2 fold change for RRIRCRPPRLPRPRPRPEAVPRP is 0.383

shrunken log2 fold change for RRIRIRPPRLPRPRPRPQYYPRP is -1.28

shrunken log2 fold change for RRIRFRPPRLPRPRPRPDRIPRP is 0.0156

shrunken log2 fold change for RRIRWRPPRLPRPRPRPIIGPRP is 0.0626

shrunken log2 fold change for RRIRRRPPRLPRPRPRPHQVPRP is 0.1

shrunken log2 fold change for RRIRPRPPRLPRPRPRPVSNPRP is -0.622

shrunken log2 fold change for RRIRWRPPRLPRPRPRPIGIPRP is -0.0434

shrunken log2 fold change for RRIRWRPPRLPRPRPRPWARPRP is 0.135

shrunken log2 fold change for RRIRSRPPRLPRPRPRPVIWPRP is 0.0455

shrunken log2 fold change for RRIRVRPPRLPRPRPRPWQSPRP is 0.0169

shrunken log2 fold change for RRIRRRPPRLPRPRPRPHEGPRP is 0.28

shrunken log2 fold change for RRIRIRPPRLPRPRPRPEKNPRP is -0.232

----------
- System: Escherichia coli TOP10
- test_summary: shrunken log2 fold change of peptide-encoding DNA abundance (4.5 h post-induction vs induction); higher = less antimicrobial activity (less host growth inhibition)
- condition_context: time post-induction: 4.5 h; library: site-saturation at positions 5, 18, 19, 20
For each entry below, report its shrunken log2 fold change value.
Form rule: numeric answer, no unit written next to it.

shrunken log2 fold change for RRIRIRPPRLPRPRPRPRSGPRP is 0.242

shrunken log2 fold change for RRIRARPPRLPRPRPRPCHEPRP is -0.055

shrunken log2 fold change for RRIRLRPPRLPRPRPRPHVCPRP is -0.247

shrunken log2 fold change for RRIRGRPPRLPRPRPRPCHNPRP is 0.033

shrunken log2 fold change for RRIRLRPPRLPRPRPRPCFLPRP is -0.337

shrunken log2 fold change for RRIRVRPPRLPRPRPRPENAPRP is 0.173

shrunken log2 fold change for RRIRDRPPRLPRPRPRPKFWPRP is 0.442

----------
For each entry below, report its shrunken log2 fold change value.
- Tested on: Escherichia coli TOP10
- test_summary: shrunken log2 fold change of peptide-encoding DNA abundance (4.5 h post-induction vs induction); higher = less antimicrobial activity (less host growth inhibition)
- condition_context: time post-induction: 4.5 h; library: site-saturation at positions 5, 18, 19, 20
Form rule: numeric answer, no unit written next to it.

shrunken log2 fold change for RRIRWRPPRLPRPRPRPFGMPRP is -0.283

shrunken log2 fold change for RRIRSRPPRLPRPRPRPHGHPRP is -0.167

shrunken log2 fold change for RRIRLRPPRLPRPRPRPRVMPRP is 0.0356

shrunken log2 fold change for RRIRDRPPRLPRPRPRPICAPRP is 0.172

shrunken log2 fold change for RRIRTRPPRLPRPRPRPFQMPRP is -0.135

shrunken log2 fold change for RRIRPRPPRLPRPRPRPLKHPRP is -0.221

shrunken log2 fold change for RRIRYRPPRLPRPRPRPHRTPRP is -0.527

shrunken log2 fold change for RRIRLRPPRLPRPRPRPCHIPRP is -0.113

shrunken log2 fold change for RRIRSRPPRLPRPRPRPQFIPRP is -1.79

shrunken log2 fold change for RRIRLRPPRLPRPRPRPEWIPRP is 0.00477

shrunken log2 fold change for RRIRVRPPRLPRPRPRPKNWPRP is 0.185

shrunken log2 fold change for RRIRKRPPRLPRPRPRPATRPRP is 0.423

shrunken log2 fold change for RRIRMRPPRLPRPRPRPWAQPRP is 0.35

----------
- Tested on: Escherichia coli TOP10
- test_summary: shrunken log2 fold change of peptide-encoding DNA abundance (4.5 h post-induction vs induction); higher = less antimicrobial activity (less host growth inhibition)
- condition_context: time post-induction: 4.5 h; library: site-saturation at positions 5, 18, 19, 20
Rule: satisfied for shrunken log2 fold change not less than 0.3, not satisfied for anything less.

Exam item: decide whether the reported shrunken log2 fold change for RRIRPRPPRLPRPRPRPEMKPRP is at least 0.3. not satisfied

Exam item: decide whether the reported shrunken log2 fold change for RRIRKRPPRLPRPRPRPTSWPRP is at least 0.3. satisfied

Exam item: decide whether the reported shrunken log2 fold change for RRIRTRPPRLPRPRPRPCIKPRP is at least 0.3. not satisfied

Exam item: decide whether the reported shrunken log2 fold change for RRIRGRPPRLPRPRPRPGKVPRP is at least 0.3. satisfied

----------
For each entry below, report its shrunken log2 fold change value.
- Test system: Escherichia coli TOP10
- test_summary: shrunken log2 fold change of peptide-encoding DNA abundance (4.5 h post-induction vs induction); higher = less antimicrobial activity (less host growth inhibition)
- condition_context: time post-induction: 4.5 h; library: site-saturation at positions 5, 18, 19, 20
Form rule: numeric answer, no unit written next to it.

shrunken log2 fold change for RRIRRRPPRLPRPRPRPIVNPRP is -0.205

shrunken log2 fold change for RRIRMRPPRLPRPRPRPQTIPRP is 0.414

shrunken log2 fold change for RRIRYRPPRLPRPRPRPDRGPRP is -0.213

shrunken log2 fold change for RRIRGRPPRLPRPRPRPMIGPRP is 0.263

----------
- System: Escherichia coli TOP10;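 also: peptides expressed intracellularly from a pBAD plasmid library in pooled LB shake-flask culture, induced with 0.3% L-arabinose, DNA abundance read by NGS, three biological replicates, DESeq2 with apeglm shrinkage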
- test_summary: shrunken log2 fold change of peptide-encoding DNA abundance (4.5 h post-induction vs induction); higher = less antimicrobial activity (less host growth inhibition)
- condition_context: time post-induction: 4.5 h; library: site-saturation at positions 5, 18, 19, 20
Rule: 1.0 for shrunken log2 fold change not less than 0.1, 0.0 for anything less.

Exam item: decide whether the reported shrunken log2 fold change for RRIRTRPPRLPRPRPRPDEKPRP is at least 0.1. 0.0

Exam item: decide whether the reported shrunken log2 fold change for RRIRHRPPRLPRPRPRPMAYPRP is at least 0.1. 0.0

Exam item: decide whether the reported shrunken log2 fold change for RRIRGRPPRLPRPRPRPNMLPRP is at least 0.1. 1.0

Exam item: decide whether the reported shrunken log2 fold change for RRIRLRPPRLPRPRPRPISIPRP is at least 0.1. 1.0

Exam item: decide whether the reported shrunken log2 fold change for RRIRGRPPRLPRPRPRPNGRPRP is at least 0.1. 1.0

Exam item: decide whether the reported shrunken log2 fold change for RRIRPRPPRLPRPRPRPPEGPRP is at least 0.1. 1.0

Exam item: decide whether the reported shrunken log2 fold change for RRIRCRPPRLPRPRPRPFALPRP is at least 0.1. 0.0

Exam item: decide whether the reported shrunken log2 fold change for RRIRRRPPRLPRPRPRPAWRPRP is at least 0.1. 1.0

Exam item: decide whether the reported shrunken log2 fold change for RRIRLRPPRLPRPRPRPESVPRP is at least 0.1. 1.0

Exam item: decide whether the reported shrunken log2 fold change for RRIRGRPPRLPRPRPRPHPAPRP is at least 0.1. 1.0

Exam item: decide whether the reported shrunken log2 fold change for RRIRQRPPRLPRPRPRPICMPRP is at least 0.1. 0.0

Exam item: decide whether the reported shrunken log2 fold change for RRIRYRPPRLPRPRPRPKDYPRP is at least 0.1. 0.0

Exam item: decide whether the reported shrunken log2 fold change for RRIRYRPPRLPRPRPRPLQAPRP is at least 0.1. 0.0

Exam item: decide whether the reported shrunken log2 fold change for RRIRVRPPRLPRPRPRPELRPRP is at least 0.1. 1.0

Exam item: decide whether the reported shrunken log2 fold change for RRIRTRPPRLPRPRPRPLLCPRP is at least 0.1. 0.0

Exam item: decide whether the reported shrunken log2 fold change for RRIRHRPPRLPRPRPRPVGMPRP is at least 0.1. 0.0

Exam item: decide whether the reported shrunken log2 fold change for RRIRNRPPRLPRPRPRPFSKPRP is at least 0.1. 0.0

Exam item: decide whether the reported shrunken log2 fold change for RRIRLRPPRLPRPRPRPYMWPRP is at least 0.1. 0.0

Exam item: decide whether the reported shrunken log2 fold change for RRIRCRPPRLPRPRPRPSKYPRP is at least 0.1. 0.0

Exam item: decide whether the reported shrunken log2 fold change for RRIRARPPRLPRPRPRPSYIPRP is at least 0.1. 0.0

Exam item: decide whether the reported shrunken log2 fold change for RRIRHRPPRLPRPRPRPVFRPRP is at least 0.1. 0.0

Exam item: decide whether the reported shrunken log2 fold change for RRIRMRPPRLPRPRPRPLHAPRP is at least 0.1. 1.0

Exam item: decide whether the reported shrunken log2 fold change for RRIRDRPPRLPRPRPRPHMIPRP is at least 0.1. 0.0

Exam item: decide whether the reported shrunken log2 fold change for RRIRCRPPRLPRPRPRPHTRPRP is at least 0.1. 0.0

Exam item: decide whether the reported shrunken log2 fold change for RRIRIRPPRLPRPRPRPGELPRP is at least 0.1. 0.0

Exam item: decide whether the reported shrunken log2 fold change for RRIRWRPPRLPRPRPRPFWTPRP is at least 0.1. 0.0

Exam item: decide whether the reported shrunken log2 fold change for RRIRKRPPRLPRPRPRPQYQPRP is at least 0.1. 0.0

Exam item: decide whether the reported shrunken log2 fold change for RRIRIRPPRLPRPRPRPYYSPRP is at least 0.1. 0.0

Exam item: decide whether the reported shrunken log2 fold change for RRIRNRPPRLPRPRPRPHCLPRP is at least 0.1. 0.0

Exam item: decide whether the reported shrunken log2 fold change for RRIRRRPPRLPRPRPRPYSDPRP is at least 0.1. 1.0

Exam item: decide whether the reported shrunken log2 fold change for RRIRERPPRLPRPRPRPHPIPRP is at least 0.1. 0.0

Exam item: decide whether the reported shrunken log2 fold change for RRIRQRPPRLPRPRPRPVVAPRP is at least 0.1. 1.0

Exam item: decide whether the reported shrunken log2 fold change for RRIRTRPPRLPRPRPRPTSWPRP is at least 0.1. 1.0

Exam item: decide whether the reported shrunken log2 fold change for RRIRWRPPRLPRPRPRPLFWPRP is at least 0.1. 1.0

Exam item: decide whether the reported shrunken log2 fold change for RRIRKRPPRLPRPRPRPTTYPRP is at least 0.1. 0.0

Exam item: decide whether the reported shrunken log2 fold change for RRIRNRPPRLPRPRPRPKPDPRP is at least 0.1. 1.0

Exam item: decide whether the reported shrunken log2 fold change for RRIRVRPPRLPRPRPRPGGPPRP is at least 0.1. 0.0

Exam item: decide whether the reported shrunken log2 fold change for RRIRRRPPRLPRPRPRPHIAPRP is at least 0.1. 0.0

Exam item: decide whether the reported shrunken log2 fold change for RRIRYRPPRLPRPRPRPWGQPRP is at least 0.1. 0.0
